Hey, just so you know, these numbers are from ChEMBL document CHEMBL4382254.

- Tested on: HCT-116
- runDescription: Cytotoxicity against human HCT116 cells after 48 hrs by MTT assay
- Assay type: functional, cell-based
- conditionSummary: HCT-116, 48 h
pIC50: −log10 of the molar value.
property: pIC50

1. Fc1ccc(COc2ccc3c(Cl)ccnc3c2)cc1	5.68
2. Clc1ccnc2cc(OCCCc3ccccc3)ccc12	6.10
3. CCCCCCOc1ccc2c(NCCN(C)C)ccnc2c1	6.07
4. CCCCOc1ccc2c(Cl)ccnc2c1	5.56
5. CN(C)CCNc1ccnc2cc(OCc3ccc(F)cc3)ccc12	6.43
6. CN(C)CCNc1ccnc2cc(OCc3ccccc3)ccc12	5.70
7. CC(C)COc1ccc2c(Cl)ccnc2c1	5.60
8. C=CCOc1ccc2c(Cl)ccnc2c1	5.59
9. CN(C)CCCNc1ccnc2cc(OCc3ccc(F)cc3)ccc12	6.13
10. CCOc1ccc2c(NCCCN(C)C)ccnc2c1	5.47
11. C=CCOc1ccc2c(NCCCN(C)C)ccnc2c1	5.68
12. CCCCCCCCOc1ccc2c(Cl)ccnc2c1	5.55
13. Clc1ccnc2cc(OCc3ccccc3)ccc12	5.61
14. CCOc1ccc2c(NCCN(C)C)ccnc2c1	5.59
15. CC(C)Oc1ccc2c(Cl)ccnc2c1	5.59
16. CCOc1ccc2c(Cl)ccnc2c1	5.50
17. Clc1ccnc2cc(OCCc3ccccc3)ccc12	5.66
18. CCCCCCOc1ccc2c(Cl)ccnc2c1	5.61
19. COc1ccc2c(Cl)ccnc2c1	5.05
20. C=CCOc1ccc2c(NCCN(C)C)ccnc2c1	6.07
